Each recorded value in this set is attributed to the supplement of paper PMC10681739.

# Experimental Target: RUNX1 (UniProt Q01196)
# Sequence (Q01196 whole entry): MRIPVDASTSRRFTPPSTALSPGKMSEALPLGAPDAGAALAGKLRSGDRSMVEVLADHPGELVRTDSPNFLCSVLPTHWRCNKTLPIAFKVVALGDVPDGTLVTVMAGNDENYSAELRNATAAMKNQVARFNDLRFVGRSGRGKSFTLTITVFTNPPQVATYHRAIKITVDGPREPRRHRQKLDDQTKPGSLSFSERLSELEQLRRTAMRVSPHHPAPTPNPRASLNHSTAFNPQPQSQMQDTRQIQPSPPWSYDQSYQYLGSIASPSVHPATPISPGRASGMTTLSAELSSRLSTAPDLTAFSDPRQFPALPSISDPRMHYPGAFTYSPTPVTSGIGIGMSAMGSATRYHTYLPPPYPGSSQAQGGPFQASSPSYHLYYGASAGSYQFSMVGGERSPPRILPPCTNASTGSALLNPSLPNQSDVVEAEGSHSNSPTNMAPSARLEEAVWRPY
# Test: RUNX1 binding intensity (PBM fluorescence) in presence of ETS1, normalised to RUNX1-only experiment (arbitrary fluorescence units); higher = stronger binding
# Measurement Conditions: RUNX1 concentration 2 nM; ETS1 concentration 25 nM
Category scheme (RUNX1 binding intensity): lower (below 1000), middle (1000 to below 2000), upper (2000 or more)

Q: Band assignment needed for TACTAGTTTGGGGCATCCTGTGGTATAGGGGAAGCA please.
Ans: middle

* * *

# Experimental Target: ETS1 (UniProt P14921)
# Sequence: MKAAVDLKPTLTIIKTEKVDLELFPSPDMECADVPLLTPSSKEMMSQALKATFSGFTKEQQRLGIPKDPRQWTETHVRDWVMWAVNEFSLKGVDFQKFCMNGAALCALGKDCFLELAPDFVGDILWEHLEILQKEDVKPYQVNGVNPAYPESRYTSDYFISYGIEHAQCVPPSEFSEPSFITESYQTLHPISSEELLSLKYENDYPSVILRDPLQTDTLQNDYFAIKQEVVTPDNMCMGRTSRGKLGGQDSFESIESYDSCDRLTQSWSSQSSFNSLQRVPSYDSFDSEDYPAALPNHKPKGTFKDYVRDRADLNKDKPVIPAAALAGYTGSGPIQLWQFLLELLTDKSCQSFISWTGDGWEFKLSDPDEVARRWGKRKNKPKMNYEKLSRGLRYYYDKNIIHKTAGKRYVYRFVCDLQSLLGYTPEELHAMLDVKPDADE
# Test: ETS1 binding intensity (PBM fluorescence) in presence of RUNX1, normalised to ETS1-only experiment (arbitrary fluorescence units); higher = stronger binding
# Measurement Conditions: ETS1 concentration 1 nM; RUNX1 concentration 25 nM
Readout Kind: ETS1 binding intensity
One number for each entry.

Worked cases, answers included:
- CTCTCCACCTCCTTCCGACCAGGACCGCACCCCCCC: 939
- TAGTCCGCTACAGGAAGGTGGTCATCCTCGGATACC: 1170
- CCGCCCTAGAGCAGGAAATAGCGGTCAGCGCCAGCT: 7280
- GCCGTAGCGGAAGAGTGTTCGTGGTCATGTGACGCC: 814
- AGGTACTCACCATTCCGGCGGTTGCTACTGTCACTG: 428
- AGGGTTGGGGAGGATGTTGTGGTTATTATTGACATA: 4990

Give one value of ETS1 binding intensity per listed sequence.
1. CTCGTGGGTGCCGGAAGTGGAGGCGGTTGGTGGGGT
2. GCCGTGGGTACGACCGGAAGCCGCAGGTGGGTGAAG
3. TTGCACACGTGGGCGGGAAGTGGTTAAGCGGCCTCA
4. GCAGGACTCCAGGAAGCCCGCGCAGCCGCAAAAAGC
5. GAGGAAAAAGGAAACAGAAACTCCGCAACTTGCGCC
6. TTTCTGACTTCCTGTGTGCTTCAGAAACCTCAATGA

Ans:
1. 15900
2. 35000
3. 4280
4. 1350
5. 411
6. 2570

I'm hoping you can list ETS1 binding intensity for every sequence here, please.
1. GAACCACTTCCCTGAAACCATTTACCACATAAATCT
2. TGGGCAAGATATCCTGGAAGTGGTTAAAAAAAATTA
3. GCTCTGCAGGATGTGGCTGTGACCGCAGTGAGGAGC
4. CCAACACAGGAAATAATTTGAAACCACAATCAGAAA
5. TTTGTCATATCAACAGGATGTGGTTCTCCCCTGGTT

Ans:
1. 904
2. 1050
3. 11800
4. 4460
5. 10700

Quick batch: ETS1 binding intensity for everything below.
1. CCAATGGGCAGGCGGAAACCGCGGGCTCGTGCTCCC
2. ACAGGTTCAGGAAGCGGCCGTGGTTGTTAGTGGTGT
3. GGTCCGGAAACGATTCTGGACCTGCGGGTATATCCA

Ans:
1. 2900
2. 639
3. 1350

Working through the 2 sequences below one at a time, give ETS1 binding intensity for each.
1. TCTCTTCCGTTCTCTGGTAGCTTTGTGGTAGCTTTG
2. CAGCGGCCGTCGCGGGAAGTGCGGTCGCCGCGGCCA

Ans:
1: 534; 2: 1120

Below is a list of sequences. For each, state its recorded ETS1 binding intensity.
1. TACTTAGAGGAAATGTGGCCTGTGGTCTTGTCTCAC
2. AACTGCCTGGTGGCCGGAAACCGCTGGAGGGAGGGC
3. GCAGCTCTGGCAGGATGCGGTTAAATATGTAGCCAC

Ans:
[977, 10100, 12800]
